Molecular target: T1, monomeric human TIGIT (Sino Biological 10917-H08H) (human, UniProt Q495A1 22-138, biotinylated in the MSD-SET assay)
T1 construct: Bought protein; also called Human TIGIT monomer; Human TIGIT-His; not shown: His tag
T1 sequence: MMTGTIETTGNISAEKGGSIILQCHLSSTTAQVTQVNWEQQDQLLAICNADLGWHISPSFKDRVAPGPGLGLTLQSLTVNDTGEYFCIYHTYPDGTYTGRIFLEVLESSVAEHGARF
Experiment: BLI (ForteBio Octet RED384), IgG on AHQ sensor, 100 nM antigen, 1:1 model
pKd: −log10 of the molar value.

- binder: "Clone 22 (antibody, V domains shown, Fully human IgG produced in yeast) VH: QVQLQESGPGLVKPSETLSLTCAVSGYSISSGYYWAWIRQPPGKGLEWIGSIYHSGSTYYNPSLKSRVTISVDTSKNQFSLKLSSVTAADTAVYYCARQGYYYGSSGSVDFDLWGRGTLVTVSS VL: DIQMTQSPSSVSASVGDRVTITCRASQGISSWLAWYQQKPGKAPKLLIYAASNLQSGVPSRFSGSGSGTDFTLTISSLQPEDFATYYCQQANSLPPWTFGGGTKVEIK"
  pKd: 7.86
- binder: "Clone 54 (antibody, V domains shown, Fully human IgG produced in yeast) VH: QVQLVQSGAEVKKPGASVKVSCKASGYTFTSYYMHWVRQAPGQGLEWMGIINPSGGSTSYAQKFQGRVTMTRDTSTSTVYMELSSLRSEDTAVYYCARASDSYGVGLYYGMDVWGQGTTVTVSS VL: EIVLTQSPGTLSLSPGERATLSCRASQSVRSSYLAWYQQKPGQAPRLLIYGASSRATGIPDRFSGSGSGTDFTLTISRLEPEDFAVYYCQQYYVSPLTFGGGTKVEIK"
  pKd: 8.46
- binder: "Clone 16 (antibody, V domains shown, Fully human IgG produced in yeast) VH: QVQLVQSGAEVKKPGSSVKVSCKASGGTFSSYAISWVRQAPGQGLEWMGGIIPIFGTASYAQKFQGRVTITADESTSTAYMELSSLRSEDTAVYYCARQSTWHKLYGTDVWGQGTTVTVSS VL: DIQMTQSPSSVSASVGDRVTITCRASQGISSWLAWYQQKPGKAPKLLIYAASSLQSGVPSRFSGSGSGTDFTLTISSLQPEDFATYYCQQGDSLPPTFGGGTKVEIK"
  pKd: 8.69

All figures here come from patent US20230050440A1.
